# soluble fraction (log2) annotations
method.description: soluble fraction after stress (log2 fold change); higher = more stays soluble; pooled small domains, quantitative proteomics
condition.label: stress: 50 degC

seq.string	soluble fraction (log2)
HMQQLDDDTVAYVADNGIAVKSKNGKELSVDTSGLSYDIIMDMFRNLPRNGDFFSSKYWSDNIQKAQAR	0.41
HMSSTSTKTQNIVHIVKSGETLSAIASKYGVSVDNIKKWNNLSSDKLSIGQKLKINPTTQTSS	0.245
HMKYYIYQGLGDSGELTKIAEVTDVKTYTATGLEANTKYRFAVSAYNGLRESSKSNIITVTT	0.0324
HMEHLTATERHLVAYLEAHLGQVPSLSITKLSQEANVSTASIVRTMKKLGYDGFTAFKHAIKQQLR	-1.77
HMLIPTISVTKEGQLRFENIPVSWEELGTRLRDVSDLDKIKIYADAESDALTISEIMKTAANVGIVQFVLV	-0.578
HMVKNLRKLREELGLTQQRLAELTGISKSRIYSYESLDREPDIAGLITLADFFSVSIDYLVGK	-1.78
HMAPKSALKIIEQISNNPRATMTDLANLTGYSRRWVAQTIKRLQEENIIKRIGSDKSGYWEIIG	-0.321
HMTGLFSPTEQTRHSKTGATLYSVKLAERIERNAFQSLKKRAKEHDGYYSSFTRSFLFDTPEDAEAFRGT	-0.27
HMAENMNAALRVSSLINQIGTVNAKAKDRIESARKAYDALSEAQKAYVANLTTLETAETSLSKL	0.179
HMSPREDQQSRKQHILEAAAVLFAERGYYKTTTADVARAVGVTQPYVFHFFKSKEELYLAVL	-0.0115
HMKDPSFELMSVAESFYRSGNVDHAVYALEKYLEVYADGDYTDRAHDLLSQARKGLTYPHGYPPLQI	-1.21
HMHDEKHHQLANEIARKWAALRGNRDFAAADELKNLAAEAGVELQATKQAVGQGALAKLKENFDPVKLEAL	0.188
HMHLDIGQLVQRILADIQVGKLADGQRKLPAEPVLMERYQVTRYTLRQALKQLSNMGYTYQMHGIGTFVRQ	-0.863
HMDKLFNRQTLGGVELTQKQIEDLNAGKAIFVEGMQRKDGEVFSSYVKLDEATGRPSYTRYNPDSP	0.441
HMGNRWENLISNKMIDDVDEELLRKYIAQAHDAGRIAISYTDRKTVLNQLELTDGDRLLNAGKVLFSD	-0.094
HMSGDKKLQMNLILEFAQQNESFRTKDIEELLQIRSSRARKLISDLVTEGRLEALGENRNRRYQLI	-0.985
HMRTSIWTAIAHSLRSDIGSGVYGPDDKLPTESALAARFGVNRHTVRHAIKALTDEGLVLPRRGAGVFVTS	-0.21
